SUBJECT_OF_TEST: T1, PUF4 RNA-binding domain (Saccharomyces cerevisiae, UniProt P25339 537-888)
T1 sequence: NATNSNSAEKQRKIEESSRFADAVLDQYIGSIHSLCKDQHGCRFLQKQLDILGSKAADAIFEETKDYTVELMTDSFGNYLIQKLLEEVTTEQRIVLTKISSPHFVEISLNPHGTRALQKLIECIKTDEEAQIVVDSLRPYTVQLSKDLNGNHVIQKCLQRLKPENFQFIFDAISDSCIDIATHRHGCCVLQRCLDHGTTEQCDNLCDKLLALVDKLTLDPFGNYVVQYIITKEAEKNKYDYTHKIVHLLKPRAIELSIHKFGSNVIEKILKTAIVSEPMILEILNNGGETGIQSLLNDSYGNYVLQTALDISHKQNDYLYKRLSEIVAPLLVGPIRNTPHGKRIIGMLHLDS
TEST_DESCRIPTION: Mg; RNA-MaP; 20 mM Na-HEPES pH 7.4, 30 mM KOAc, 0.75 mM MgCl2, 0.1% Tween-20, 5% glycerol, 0.1 mg/mL BSA, 2 mM DTT; 25 C; 0.0125-409.6 nM protein
CONDITIONS: tags: N-His6-TEV cleaved; C-SNAP kept, Cy3B-labelled; label: tethered on chip by stalled RNA polymerase
pKd: −log10 of the molar value.
The entries below are paired with their reported pKd.
QUANTITY_NAME: pKd

{"columns": ["BINDER", "QUANTITY_NAME", "BOUND_SIGN", "OBSERVED_MEASUREMENT"],
 "data": [
  ["Id_ii_S2_P3E.2_K3.1_C3.2_[T-1A]_H3.1_A3.1_F3.1_T3.2_[T9A] (ssRNA) RNA: UUUGAUUAAUAUGAUAUCGUUCUUUCUCAUGUAUAUAAAUUCUUUCUCGAUAUCAUAUUAAUCUUU", "pKd", "=", 8.41],
  ["UCUCUUAGCACACUAUAUAUCUCUU (ssRNA) [Id_i_S1_P3E.7_K3.3_C3.3_[T-3A]_[C-2G]_[T-1C]_H3.3_A3.1_F3.1_T3.2]", "pKd", "<", 5.64],
  ["UCUCUUUUUAUAUUAUUAACUCUCUU (ssRNA) [Id_ii_S1_P5E.3_K5.2_C5.2_[C-2T]_H5.2_A5.1_F5.1_T5.2_[T11A]_[A12C]]", "pKd", "=", 6.28],
  ["UCUCUUUUUGUAUAUUAUCUCUCUU (ssRNA) [Id_ii_S1_P4E.2_K4.1_C4.2_[C-2T]_H4.1_A4.1_F4.1_T4.2_[G10T]_[T11C]]", "pKd", "=", 9.07],
  ["ACAAACACUAUAUAUAUAACAAAC (ssRNA) [Id_ii_S3_P3E.3_K3.2_C3.2_[C-2A]_[T-1C]_H3.2_A3.1_F3.1_T3.2]", "pKd", "=", 6.06],
  ["UCUCUUGUUGUAUUAUUAAAUCUCUU (ssRNA) [Id_ii_S1_P5E.2_K5.1_C5.2_[C-2G]_H5.1_A5.1_F5.1_T5.2_[T11A]]", "pKd", "=", 7.93],
  ["UCUCUUUGUAUAUUACCCUUUCUCUU (ssRNA) [Ie_S1_P4E.1_K4.1_C4.1_H4.1_A4.1_F4.1_[+9CCCTT]_T4.1]", "pKd", "=", 9.03],
  ["UCUCUUUGUGUACAUCUCUU (ssRNA) [Ib_S1_P3E.1_K3.1_C3.1_H3.1_[A4G]_A3.1_F3.1_[T7C]_T3.1]", "pKd", "=", 7.41],
  ["Ic_S2_P4E.1_K4.1_C4.1_H4.1_A4.1_[T5A]_[A6C]_[T7C]_F4.1_[A9T]_T4.1 (ssRNA) RNA: UUUGAUUAAUAUGAUAUCGUUCUUUCUUGUAACCUUUUCUUUCUCGAUAUCAUAUUAAUCUUU", "pKd", "=", 7.61],
  ["Id_ii_S2_P3E.3_K3.2_C3.2_[C-2G]_[T-1G]_H3.2_A3.1_F3.1_T3.2_[A10T] (ssRNA) RNA: UUUGAUUAAUAUGAUAUCGUUCUUUCUGGUAUAUAUAUUUUCUUUCUCGAUAUCAUAUUAAUCUUU", "pKd", "=", 6.86],
  ["ACAAACAUUAUAUAUAUCACAAAC (ssRNA) [Id_ii_S3_P3E.3_K3.2_C3.2_[C-2A]_H3.2_A3.1_F3.1_T3.2_[A10C]]", "pKd", "=", 6.35],
  ["UCUCUUUGUAUACGGUUCUCUU (ssRNA) [Ic_S1_P5E.1_K5.1_C5.1_H5.1_A5.1_[T6A]_[A7C]_F5.1_[T8G]_[T9G]_[A10T]_T5.1]", "pKd", "=", 7.04],
  ["Ic_S2_P5E.1_K5.1_C5.1_H5.1_A5.1_[T5A]_[T6C]_[A7G]_F5.1_[T8G]_[T9C]_[A10C]_T5.1 (ssRNA) RNA: UUUGAUUAAUAUGAUAUCGUUCUUUCUUGUAACGGCCUUCUUUCUCGAUAUCAUAUUAAUCUUU", "pKd", "<", 5.64]
]}
